assay.explanation: capillary depletion analysis after in situ brain perfusion
Type: in vivo, mouse
condition.info: male, Balb/c, mouse, endothelial cell-enriched pellet after capillary depletion, other: in situ brain perfusion, with unlabelled ADMA 10 µM, Arginine / Sucrose uptake, pellet, mean, [3H] Arginine + [14C] Sucrose + 10 uM ADMA, 10 mins, Balb/c ♂, 5ml/min; mean
quantity: Kp at 10 min

Query block: I am curious: what Kp at 10 min value has been reported for OC[C@H]1O[C@@](CO)(O[C@H]2O[C@H](CO)[C@@H](O)[C@H](O)[C@H]2O)[C@@H](O)[C@@H]1O [[^14C]-sucrose, reference compound] ?
Result block: 0.00425

The origin of these recorded values is paper PMC11501026.
